Origin of values: ChEMBL document CHEMBL4602728

- Protocol description: Induction of mitochondrial uncoupling in rat L6 cells assessed as increase in oxygen consumption rate incubated for 90 mins by Seahorse XF analyzer based assay
- Type: mitochondria, Mitochondria
Observed property: EC50 (µM)

Illustrative cases are given below, each with its answer.
Oc1nc2nonc2nc1NC1C2CC3CC(C2)CC1C3 (stereo not drawn); 22.8
CCCCCCc1ccc(Nc2nc3nonc3nc2O)c(F)c1; 3.3
Oc1nc2nonc2nc1NCCC(F)(F)F; 110
COc1cccc(Nc2nc3nonc3nc2O)c1; 75.4
Oc1nc2nonc2nc1NCc1ccc(OC(F)(F)F)cc1; 13.4

I: Oc1nc2nonc2nc1Nc1ccc(OCC(F)(F)F)cc1
II: Oc1nc2nonc2nc1Nc1ccc(OCC2CC2)c(C(F)(F)F)c1
III: Oc1nc2nonc2nc1Nc1ccc(OC(F)(F)F)c(Cl)c1
IV: Oc1nc2nonc2nc1Nc1ccc2c(c1)OC(F)(F)O2
Rank the items in ascending order with respect to EC50. Order the labels as requested and list them. II, III, IV, I
(II: 1.8 µM, III: 3 µM, IV: 7.6 µM, I: 42.3 µM)

I: CC12CC3CC(C)(C1)CC(Nc1nc4nonc4nc1O)(C3)C2
II: Oc1nc2nonc2nc1Nc1ccc(F)cc1
III: Oc1nc2nonc2nc1Nc1cccc(S(F)(F)(F)(F)F)c1
Order the records so the highest EC50 appears first and the lowest last. Answer format: the labels, in the requested order. II, III, I
(II: 38.6 µM, III: 3.7 µM, I: 2 µM)

P: Oc1nc2nonc2nc1NC12CC3CC(CC(C3)C1)C2
Q: Oc1nc2nonc2nc1Nc1cccc2ccccc12
Please choose the item with the lower EC50 value from this pair: P and Q Label of pick, please. P

a: Oc1nc2nonc2nc1Nc1ccc(SC(F)(F)F)cc1
b: Oc1nc2nonc2nc1Nc1ccccc1C(F)(F)F
c: Oc1nc2nonc2nc1Nc1ccc2c(c1)OCO2
Kindly order the items shown according to EC50, from the highest value down. Use the labels to give the ranking in the order requested. c, b, a

A: Oc1nc2nonc2nc1Nc1ccccc1F
B: Oc1nc2nonc2nc1Nc1ccc(OC(F)(F)C(F)F)cc1
Lab notebook, comparison: A versus B , higher EC50 goes to which? Give the label of your selection. A
(A: 12.5 µM, B: 7 µM)

1: Oc1nc2nonc2nc1Nc1ccc2ccccc2c1
2: Cc1ccc(Nc2nc3nonc3nc2O)cc1
I need your help: which of the pair 1 , 2 has higher EC50? Mark your selection by writing its label. 2
(2: 51.9 µM, 1: 4 µM)

1: CCCCCCc1ccc(Nc2nc3nonc3nc2O)cc1
2: Cc1cc(Nc2nc3nonc3nc2O)ccc1OCC(F)(F)F
3: Oc1nc2nonc2nc1Nc1ccc(OC(F)(F)Cl)cc1
Sort low-to-high on EC50, please. Answer by naming the labels in the order asked. 3, 1, 2

1: Oc1nc2nonc2nc1Nc1cccc(C(F)(F)F)c1F
2: Oc1nc2nonc2nc1Nc1ccc(C(F)(F)F)cc1F
Param metric = EC50; output whichever of 1 , 2 has the minimum value. When you have decided, please share the label of that item. 2
(2: 2.6 µM, 1: 4.9 µM)
